Target: recombinant Axl tyrosine kinase (Homo sapiens)
Construct: encompassing amino acids 473 to 894 of Axl; GST (N); made in house; host or cells: SF126 insect cells
Sequence (P30530 473-894): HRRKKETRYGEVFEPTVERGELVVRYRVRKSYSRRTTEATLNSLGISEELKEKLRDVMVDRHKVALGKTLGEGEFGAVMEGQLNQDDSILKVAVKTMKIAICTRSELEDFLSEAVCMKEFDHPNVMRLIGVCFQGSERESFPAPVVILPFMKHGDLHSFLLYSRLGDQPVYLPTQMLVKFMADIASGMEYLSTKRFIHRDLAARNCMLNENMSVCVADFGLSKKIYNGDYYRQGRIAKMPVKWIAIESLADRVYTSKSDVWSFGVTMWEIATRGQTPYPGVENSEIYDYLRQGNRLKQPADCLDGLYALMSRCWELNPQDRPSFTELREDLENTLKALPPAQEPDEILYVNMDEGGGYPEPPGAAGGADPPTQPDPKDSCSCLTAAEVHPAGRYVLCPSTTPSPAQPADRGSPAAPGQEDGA
Experiment: In vitro Axl kinase assay (AlphaScreen), Test (a)
Type: biochemical
Conditions: test compound at 1 μM; first value quoted
endpoint name: % Axl tyrosine kinase inhibition at 1 μM concentration (%)
Lab book: enter the figure in %, no units written.

{"compound": "Nc1ncc(-c2ccc(S(=O)(=O)NCCO)cc2)cc1-c1nc2cnccc2o1", "reading": 99.2}
{"compound": "Nc1ncc(-c2ccc(OC3CCNCC3)cc2)cc1-c1nc2ncccc2o1 [Example 43B.33]", "reading": 98.1}

I am curious: what % Axl tyrosine kinase inhibition at 1 μM concentration value has been reported for Cc1nn(C2CCN(C)CC2)c(C)c1-c1cnc(N)c(-c2nc3ccccc3o2)c1 ?
84.8

Okay, and CN(C)CCNC(=O)c1cccc(-c2cnc(N)c(-c3nc4ccccc4o3)c2)c1 ?
96.5

Okay, and CS(=O)(=O)Oc1cccc(-c2cnc(N)c(-c3nc4ccccc4o3)c2)c1 ?
81.0

Okay, and COc1cc(-c2cnc(N)c(-c3nc4ncccc4o3)c2)ccc1OC1CCCNCC1 (stereo not shown) [Example 43C.38] ?
99.8

Okay, and CN(C(=O)c1ccc(-c2cnc(N)c(-c3nc4cccnc4o3)c2)cc1)C1CCNCC1 [Example 45A.96] ?
99.1
